Assay: Oral bioavailability in rat
Assay type: ADME, organism-based
Conditions: in vivo
REPORTED ENDPOINT: bioavailability

Req: Note bioavailability for the molecule shown: C[C@@H]1OC(=O)NN=C1c1ccc(-c2ccc(F)cc2)c(C(F)(F)F)c1
Resp: > 95%

###

Assay: Metabolic stability in mouse hepatocytes assessed as bioavailability at 1 uM measured upto 90 mins by LC-MS/MS analysis
Type: ADME, Hepatocyte
Answer each item with its documented Fh at 1.5 h, 1 µM.
Answers are plain numbers, in %.

Respectfully, I request Fh at 1.5 h, 1 µM for each entry included below.
1. O=C1NN=C(c2ccc(N3CCC(F)(F)CC3)c(C(F)(F)F)c2)CO1
2. C[C@@H]1OC(=O)NN=C1c1ccc(-c2cnn(C(F)F)c2)c(C(F)(F)F)c1
3. Cc1cc(C2=NNC(=O)OC2)ccc1-c1ccc(F)cc1
4. O=C1NN=C(c2ccc(-c3ccc(F)cc3)c(F)c2)CO1
5. C[C@@H]1OC(=O)NN=C1c1ccc(-c2ccncc2)c(C(F)(F)F)c1
6. C[C@@H]1OC(=O)NN=C1c1ccc(-c2ccnc(N)c2)c(C(F)(F)F)c1

Resp:
37
27
40
54
41
36

Respectfully, I request Fh at 1.5 h, 1 µM for each entry included below.
1. C[C@@H]1OC(=O)NN=C1c1ccc(-c2ccc(Cl)cn2)c(C(F)(F)F)c1
2. O=C1NN=C(c2ccc(N3CCOCC3)c(F)c2)CO1
3. C[C@@H]1OC(=O)NN=C1c1ccc(-n2cc(C(F)(F)F)cn2)c(C(F)(F)F)c1
4. C[C@@H]1OC(=O)NN=C1c1ccc(-c2ccc(F)cc2)c(C(F)(F)F)c1

Resp:
53
47
63
85
